Taken from patent US9511134B2.

Target: DRB1*0701 (Homo sapiens, UniProt P01903+P01911, A100R/A102G/A103Q/D57E/D86V/E43K/F76Y/K127E/L162R/M171V/P40G/Q125H/Q99D/R33Q/R42Y/R54Q/S133A/S66F/T210M/V115G/Y107V/Y59L/Y89S)
Assay: biochemical
Format: binding
Quantity kind: IC50

{"Molecule": "CC[C@H](C)[C@H](NC(=O)CNC(=O)[C@@H](NC(=O)[C@@H]1CCCN1C(=O)[C@H](CCCNC(=N)N)NC(=O)[C@@H](N)CCCNC(=N)N)C(C)C)C(=O)N[C@@H](CO)C(=O)N[C@@H](CO)C(=O)N[C@@H](CCSC)C(=O)N[C@H](C(=O)N[C@@H](CCC(=O)O)C(=O)N[C@@H](C)C(=O)N[C@@H](CCSC)C(=O)N[C@H](C(=O)N[C@@H](CO)C(=O)O)C(C)C)C(C)C [Flu.PB1.709]", "Quantity kind": "IC50", "Value observed": "1.8 µM"}
{"Molecule": "CC[C@H](C)[C@H](NC(=O)[C@@H](N)Cc1ccc(O)cc1)C(=O)N[C@@H](CCC(N)=O)C(=O)N[C@@H](CCSC)C(=O)N[C@@H](CS)C(=O)N[C@H](C(=O)N[C@@H](CCC(=O)O)C(=O)N[C@@H](CC(C)C)C(=O)N[C@@H](CCCCN)C(=O)N[C@@H](CC(C)C)C(=O)N[C@@H](CO)C(=O)N[C@@H](CC(=O)O)C(=O)N[C@@H](Cc1ccc(O)cc1)C(=O)N[C@@H](CCC(=O)O)C(=O)NCC(=O)O)[C@@H](C)O [Flu.NP.43]", "Quantity kind": "IC50", "Value observed": "5.37 µM"}
{"Molecule": "CSCC[C@H](NC(=O)[C@H](CO)NC(=O)[C@H](CCCCN)NC(=O)[C@H](C)N)C(=O)N[C@@H](CCC(=O)O)C(=O)N[C@@H](Cc1ccc(O)cc1)C(=O)N[C@@H](CC(=O)O)C(=O)N[C@@H](C)C(=O)N[C@H](C(=O)N[C@@H](C)C(=O)N[C@H](C(=O)N[C@H](C(=O)N[C@@H](Cc1c[nH]cn1)C(=O)N[C@@H](CO)C(=O)N[C@@H](Cc1c[nH]c2ccccc12)C(=O)O)[C@@H](C)O)[C@@H](C)O)C(C)C [Flu.PB1.655]", "Quantity kind": "IC50", "Value observed": "0.292 µM"}
{"Molecule": "CC[C@H](C)[C@H](NC(=O)[C@@H](NC(=O)[C@H](CCCNC(=N)N)NC(=O)[C@H](CCC(N)=O)NC(=O)[C@@H](NC(=O)[C@@H](NC(=O)[C@H](CCSC)NC(=O)[C@H](CCCCN)NC(=O)[C@H](CCCCN)NC(=O)[C@@H](N)[C@@H](C)O)C(C)C)[C@@H](C)O)[C@@H](C)O)C(=O)NCC(=O)N[C@@H](CCCCN)C(=O)N[C@@H](CCCCN)C(=O)N[C@@H](CCCCN)C(=O)N[C@@H](CCC(N)=O)C(=O)O [Flu.PB1.199]", "Quantity kind": "IC50", "Value observed": "14.1 µM"}
{"Molecule": "CC[C@H](C)[C@H](NC(=O)[C@H](CCC(=O)O)NC(=O)CNC(=O)[C@@H](N)C(C)C)C(=O)N[C@@H](CO)C(=O)N1CCC[C@H]1C(=O)N[C@@H](CC(C)C)C(=O)N1CCC[C@H]1C(=O)N[C@@H](CO)C(=O)N[C@@H](CC(C)C)C(=O)N1CCC[C@H]1C(=O)NCC(=O)N[C@@H](Cc1c[nH]cn1)C(=O)N[C@H](C(=O)N[C@@H](CC(=O)O)C(=O)O)[C@@H](C)O [Flu.NS1.160]", "Quantity kind": "IC50", "Value observed": "> 10 µM"}
